These measurements were taken from ChEMBL document CHEMBL1125820.

assay.comment: Partition coefficient (logP)
condition.label: octanol/water
parameter: logP
Answer using only a numeral; do not append any unit.

Examples from the recorded data:
smiles.record: O=[N+]([O-])c1c2c3c(ccc4cccc(c43)CC2)c2ccccc12
logP: 6.16
//
smiles.record: Nc1ccc(-c2ccc([N+](=O)[O-])cc2)cc1
logP: 2.68

[in] Name the reported logP value associated with the compound O=[N+]([O-])c1ccc2c3ccc([N+](=O)[O-])c4ccc5ccc6ccc1c2c6c5c43
[out] 6.07

[in] Name the reported logP value associated with the compound C=Cc1ccc([N+](=O)[O-])cc1
[out] 2.61

[in] Name the reported logP value associated with the compound O=[N+]([O-])c1ccc(F)c(Cl)c1
[out] 2.74

[in] Name the reported logP value associated with the compound O=[N+]([O-])c1ccc2ccc3c4c(cc5ccc1c2c53)CCCC4
[out] 6.57

---

assay.comment: Partition coefficient (logP)
condition.label: octanol/water
Binning rule for recorded logP: range A: < 2; range B: ≥ 2 and < 3; range C: ≥ 3

Worked examples, 5 compounds total:
compound: O=[N+]([O-])c1cc([N+](=O)[O-])c2ccccc2c1
label: range B

compound: O=[N+]([O-])c1cc2cccc3ccc4cccc1c4c32
label: range C

compound: O=[N+]([O-])c1ccc(-c2cccc([N+](=O)[O-])c2)cc1
label: range C

compound: O=[N+]([O-])c1ccc2c(c1)Cc1ccccc1-2 [2-NITROFLUORENE]
label: range C

compound: O=[N+]([O-])c1ccc2nc3ccccc3nc2c1
label: range B

[in] Please let me know in which category the item CCOc1ccccc1[N+](=O)[O-] belongs.
[out] range B

[in] Please let me know in which category the item O=[N+]([O-])c1ccc2c3c(cccc13)C=C2 belongs.
[out] range C

[in] Please let me know in which category the item O=C/C=C/c1ccc([N+](=O)[O-])o1 belongs.
[out] range A

[in] Please let me know in which category the item O=[N+]([O-])c1cccc2[nH]c3ccccc3c12 belongs.
[out] range C

[in] Please let me know in which category the item O=[N+]([O-])C1=CC=CC2Nc3ccccc3NC12 (configuration not stated) belongs.
[out] range B

[in] Please let me know in which category the item O=[N+]([O-])c1cc(F)ccc1F belongs.
[out] range A

[in] Please let me know in which category the item Cn1c([N+](=O)[O-])nc2ccccc21 belongs.
[out] range A

---

assay.comment: Partition coefficient (logP)
condition.label: octanol/water
logP vs 3: less than gives satisfied; not less than gives not satisfied.

smiles.record: O=[N+]([O-])c1cc2c3c(cccc3c1[N+](=O)[O-])-c1ccccc1-2
label: not satisfied

smiles.record: O=[N+]([O-])c1c2ccccc2cc2ccccc12
label: not satisfied

smiles.record: O=[N+]([O-])c1cc2c3c(cccc3c1)-c1ccccc1-2
label: not satisfied

[in] Decide: logP of Nc1ccc([N+](=O)[O-])cc1[N+](=O)[O-] strictly below 3?
[out] satisfied

[in] Decide: logP of O=[N+]([O-])c1ccc2ccc3c(O)ccc4ccc1c2c43 strictly below 3?
[out] not satisfied

[in] Decide: logP of Nc1ccc([N+](=O)[O-])cc1O strictly below 3?
[out] satisfied

[in] Decide: logP of O=[N+]([O-])c1cc2ccc3cc([N+](=O)[O-])cc4ccc(c1)c2c34 strictly below 3?
[out] not satisfied

[in] Decide: logP of O=[N+]([O-])c1ccc2c(c1)CCc1ccccc1-2 strictly below 3?
[out] not satisfied

[in] Decide: logP of CN1CCc2cc([N+](=O)[O-])ccc21 strictly below 3?
[out] satisfied

[in] Decide: logP of CN1Cc2cc([N+](=O)[O-])ccc2N1 strictly below 3?
[out] satisfied

[in] Decide: logP of O=[N+]([O-])c1ccc2cn[nH]c2c1 strictly below 3?
[out] satisfied

[in] Decide: logP of O=[N+]([O-])c1ccc(Cl)cc1 strictly below 3?
[out] satisfied

---

Listing of recorded logP by entry.
assay.comment: Partition coefficient (logP)
condition.label: octanol/water
Answer using only a numeral; do not append any unit.

Examples from the recorded data:
compound: Cc1ccc2cccc([N+](=O)[O-])c2n1
logP: 1.99
//
compound: O=[N+]([O-])c1cccc2cc[nH]c12
logP: 2.13

[in] Name the reported logP value associated with the compound O=[N+]([O-])c1cc([N+](=O)[O-])c2ccc3cccc4ccc1c2c43
[out] 4.44

[in] Name the reported logP value associated with the compound O=[N+]([O-])c1c2c(cc3ccccc13)C=CC(O)C2O (stereo not given)
[out] 1.38

[in] Name the reported logP value associated with the compound NC(=O)N/N=C/c1ccc([N+](=O)[O-])o1
[out] 0.23

---

assay.comment: Partition coefficient (logP)
condition.label: octanol/water
parameter: logP
Answer using only a numeral; do not append any unit.

Examples from the recorded data:
compound: O=C1c2ccccc2-c2cc([N+](=O)[O-])ccc21
logP: 3.06
--
compound: O=C(/C=C/c1ccc([N+](=O)[O-])o1)N/N=C/c1ccc([N+](=O)[O-])o1
logP: 2.79
--
compound: O=[N+]([O-])c1ccc2ccc3c4c(cc5ccc1c2c53)C=CC(O)C4O (stereo unspecified)
logP: 3.01
--
compound: CC(=O)Nc1ccc2c(c1)Cc1cc([N+](=O)[O-])ccc1-2
logP: 3.08

[in] Name the reported logP value associated with the compound Cc1ccccc1-c1ccc([N+](=O)[O-])c(C)c1
[out] 4.49

[in] Name the reported logP value associated with the compound O=[N+]([O-])c1cccc2ncccc12
[out] 1.86

---

assay.comment: Partition coefficient (logP)
condition.label: octanol/water
parameter: logP
Answer using only a numeral; do not append any unit.

smiles.record: O=[N+]([O-])c1cccc2c1-c1cccc3cccc-2c13
parameter: logP
readout.number: 4.69
//
smiles.record: O=[N+]([O-])c1cccc2cccc([N+](=O)[O-])c12
parameter: logP
readout.number: 2.52
//
smiles.record: O=[N+]([O-])c1ccc2ccc3cccc4c5ccccc5c1c2c34
parameter: logP
readout.number: 5.87
//
smiles.record: O=[N+]([O-])c1ccc2c(c1)-c1cccc3cccc-2c13
parameter: logP
readout.number: 4.69

[in] Name the reported logP value associated with the compound CN1Cc2cccc([N+](=O)[O-])c2N1
[out] 1.77

---

assay.comment: Partition coefficient (logP)
condition.label: octanol/water
Listing of recorded logP by entry.
Answer using only a numeral; do not append any unit.

Examples from the recorded data:
smiles.record: CC(=O)Oc1cc([N+](=O)[O-])c2ccc3cccc4ccc1c2c43
logP: 4.42
//
smiles.record: O=[N+]([O-])c1cc2c(cc1Cl)Oc1cc(Cl)c(Cl)cc1O2
logP: 6.68

[in] Name the reported logP value associated with the compound O=[N+]([O-])c1ccc2c3cccc4cccc(c5cccc1c52)c43
[out] 5.87

---

assay.comment: Partition coefficient (logP)
condition.label: octanol/water
parameter: logP
Answer using only a numeral; do not append any unit.

Examples from the recorded data:
compound: O=[N+]([O-])c1ccc2c3ccccc3c3ccccc3c2c1
parameter: logP
readout.number: 5.41
--
compound: O=[N+]([O-])c1ccc2ccc3cccc4ccc1c2c34 [1-NITROPYRENE]
parameter: logP
readout.number: 4.69
--
compound: O=[N+]([O-])c1c(O)cc2cccc3c2c1-c1ccccc1-3
parameter: logP
readout.number: 4.66
--
compound: Nc1cccc(-c2ccc([N+](=O)[O-])cc2)c1
parameter: logP
readout.number: 2.68
--
compound: O=[N+]([O-])c1cc2c3ccccc3ccc2c2ccccc12
parameter: logP
readout.number: 5.41
--
compound: O=[N+]([O-])c1ccc2ccccc2c1
parameter: logP
readout.number: 3.24
--
compound: O=[N+]([O-])c1ccc(Cl)c(Cl)c1Cl
parameter: logP
readout.number: 3.61
--
compound: O=[N+]([O-])c1ccc(Cl)cc1Cl
parameter: logP
readout.number: 3.09
--
compound: O=[N+]([O-])c1cccc2c1-c1cccc3c([N+](=O)[O-])ccc-2c13
parameter: logP
readout.number: 4.44
--
compound: O=[N+]([O-])C1=Cc2c3ccc4ccccc4c3cc3cccc1c23
parameter: logP
readout.number: 5.07

[in] Name the reported logP value associated with the compound O=[N+]([O-])c1cc2ccc3ccc4ccc5ccc6ccc1c1c6c5c4c3c21
[out] 6.79

[in] Name the reported logP value associated with the compound O=[N+]([O-])c1cc2ccc3cccc4ccc(c1)c2c34
[out] 4.69

[in] Name the reported logP value associated with the compound O=[N+]([O-])c1ccc2c3c(cccc13)-c1ccccc1-2
[out] 4.69

[in] Name the reported logP value associated with the compound O=[N+]([O-])c1cc2c3c(ccc4cccc(c43)CC2)c1
[out] 4.99

[in] Name the reported logP value associated with the compound O=[N+]([O-])c1ccc2c3c(ccc([N+](=O)[O-])c13)-c1ccccc1-2
[out] 4.44

[in] Name the reported logP value associated with the compound O=[N+]([O-])c1ccc2ccc3cccc4c5c(c1c2c34)CCCC5
[out] 6.26

[in] Name the reported logP value associated with the compound O=[N+]([O-])c1cc(Cl)ccc1Cl
[out] 2.9
